assay: Plasma pharmacokinetics of CX-5461 (HPLC-MS/MS, non-compartmental); type: in vivo, human; conditions: human, plasma, intravenous, 325 mg/m2, 325 mg/m2; Time 24; individual patients; read-out: Day 1 CX-5461 plasma concentration

structure-smiles: Cc1cnc(CNC(=O)c2c(=O)c3ccc(N4CCCN(C)CC4)nc3n3c2sc2ccccc23)cn1
unit-of-measurement: ng/mL
concentration at 24 h: 232

---

assay: Plasma pharmacokinetics of CX-5461 (HPLC-MS/MS, non-compartmental); format: in vivo, human; settings: human, plasma, intravenous, 325 mg/m2, Dose level 325 (mg/m2); one patient per datapoint; read-out: Day 1 Cmax
quantity: Cmax

compound: Cc1cnc(CNC(=O)c2c(=O)c3ccc(N4CCCN(C)CC4)nc3n3c2sc2ccccc23)cn1 [CX-5461]
recorded-result: 1310 ng/mL

---

assay: Plasma pharmacokinetics of CX-5461 (HPLC-MS/MS, non-compartmental); assay type: in vivo, human; conditions: human, plasma, intravenous, 650 mg/m2, 650 mg/m2; Time 48; individual patients; read-out: Day 1 CX-5461 plasma concentration

molecule: Cc1cnc(CNC(=O)c2c(=O)c3ccc(N4CCCN(C)CC4)nc3n3c2sc2ccccc23)cn1 [CX-5461]
unit-of-measurement: ng/mL
concentration at 48 h: 222

---

assay: Plasma pharmacokinetics of CX-5461 (HPLC-MS/MS, non-compartmental); format: in vivo, human; details: human, plasma, intravenous, 325 mg/m2, Dose level 325 (mg/m2); one patient per datapoint; read-out: Day 8 or 15 Cmax
quantity: Cmax

structure-smiles: Cc1cnc(CNC(=O)c2c(=O)c3ccc(N4CCCN(C)CC4)nc3n3c2sc2ccccc23)cn1
quantity: Cmax
recorded-result: 1440 ng/mL
